The origin of these recorded values is the nanobody polyreactivity screen of Harvey et al. (2022).

Assay: yeast display, Sf9 membrane polyspecificity reagent, FACS + sequencing; frameworks hold sequencing errors
property_label: polyreactivity (PSR sort gate)

sequence_data	experimental_value
QVQLVESGGGLVQAGGSLRLSCAASGITFGIYVMGCYRQAPGKEREFVATMSRSDDNTYYADSVKGRFTISRDNAKNTVYLQRNSLKPEDTAVYYCAADGVISAWYSSRDDYWGQGTQVTVSS	low polyreactivity
QDHLVESGGGLVQAGGSLRLSCAASGFIFRGNAMGWYRQPPGKERELVAAISRRGGTTYYADCVKGRFTISRDNAKNTDYLQMNSLKPEDTAVYYCAAYSPLSSGMDSWGQGTQVTVSS	high polyreactivity
QVQLVESGGGLVQAGGSLRLSCAASGSIITPYTMGWYRQAPGKERELVAAITGSAGSTYYADSVKGRFTISRDNAKNTVYLQMNSLKPEDTAVYYCAAAVWGVYQWYYYWGQGTQVTVSS	high polyreactivity
QVQLVESGGGLVQAGGSLRLSCAASGRIFTYYAMGWYRQAPGKERELVASISKSSGSTYYADSVKGRFTISRDNAKNTVYLQMNSLKPEDTAVYYCATDPYVRRSPSWYDYWGQGTQVTVSS	low polyreactivity

Now examine the next entry.
Prompt: Bench note: what polyreactivity (PSR sort gate) did QVQLVESGGGLVQAGGSLRLSCAATGITFRYNAMGWYRLAPGKERELVAAITFSGGSTYYADSVKGRFTISRDNAKNTVYLQMNSLKPEDTAVYYCAKLGSTSSRGNYDYWGQGTQVTVSS show?
Completion: low polyreactivity

----------
Assay: yeast display, Sf9 membrane polyspecificity reagent, FACS + sequencing; frameworks hold sequencing errors
property_label: polyreactivity (PSR sort gate)

sequence_data	experimental_value
QVQLVESGGGLVQAGGSLRLSCAASGRTFFTNALGGYRQAPGKVRELVASINSGGNTTYADSVKGRFTISRDNAKNTVYLQINSLKPEDTAVSYCAAVRSAQRWRRYYYGGQGTQVTVSS	low polyreactivity
QVQLVESGGGLVQAGGSLRLSCAASGFISYFYAMGWYRQAPGKERELVAAISWNGARTYYADSVKGRFTISRDNAKNTVYLQMNSLKPEDTAVYYCNAGTFTRRRGLDYWGQGTQVTVSS	low polyreactivity
QVQLVESGGGLVQAGGSLRLSCAASGSIFATNAMGWYRQAPGKERELVASISSGGGSTYDADSVKGRFTLSRDNAKNTVYLQMNSLKPEDTAVYYCARRIGQGSRPYWLETWRYPYDYWGQGTQVTVSS	low polyreactivity

----------
Assay: yeast display, Sf9 membrane polyspecificity reagent, FACS + sequencing; frameworks hold sequencing errors

sequence_data	polyreactivity (PSR sort gate)
QVQLVESGGGLVQAGGSLRLSCAASGRIIGYYAMGWYRQAPGKERELVATINYSGGRTYYADSVKGRFTISRDNAKNTVYLQMNSLKPEDTAVYYCNARESGRGSHDDYWGHGTQVTVSS	high polyreactivity
QVQLVESGGGLVQAGGSLRLSCAASGFTFNRTAMGWYRQAPGKERELVAAITRRGGSTYYADSVKGRFTISRDNAKNTVYLQMNSLKPEDTAVYYCAARRGAGDGYWGQGTQVTVSS	high polyreactivity
QVQLVESGGGLVQAGGSLRLSCAASGRTLARNAMGWDIQGPGKERELVASINGRTTRTYYADSVKGRFTISRDNAKNTVYLQMNSLKPEDTAVYYCAAERKNKYDYWGQGTQVTVSS	high polyreactivity
QVQLVETGGGLVQAGGSLRLSCAASGFTFDVYVMGWYRLAPGKERELVAAISWSGDSTYYADSVKGRFTISRDNAKNTVYLQMNSLKPADCAFSFCAAVGYTSRRPVVRYYYWGQGTQVTVSS	high polyreactivity

----------
Assay: yeast display, Sf9 membrane polyspecificity reagent, FACS + sequencing; frameworks hold sequencing errors
property_label: polyreactivity (PSR sort gate)

Would you please look over these solved cases?
sequence_data	experimental_value
QVQLVESGGGLVQAGGSLRLSCAASGSTFEQNAMGWYRQAPGKEREFVAAITGSGGSTYYADSVKGRFTISRDNAKNTVYLQMNSLKPEDTAVYYCAADIQDGLYWWDIYDYWGQGTQVTVSS	low polyreactivity
PVQLVESGGGLVQAGGSLRLSCAASGSTFAYNDLGWYRQAPGKERELVADIRSGGNTNYADSVKGRFTISRDNAKNTVYLQMNSLKPEDTAVYYCATDGYRIDVFHPDYRYDYWGQGTQETVSS	low polyreactivity
QVQLVESGGGLVQAGGSLRLSCAASGITFAWYAMGWYRQAPGKERELVAAIDDRGGSTYYADSVKGRFTISRDNAKNTVYFQMNSLKPEDTAVYYCNADTKSYEPYRLDYWGQGTQVTVSS	low polyreactivity
QVQLVESGGGLVQAGGSLRLSCAASGSIFGIYAMGWYRQAPGKERELVAAISSRAGSTNYADSVKGRFTISRDNAKNTVYLKMNSLKPEDTAVYDCNAKFSPPRRWPLRDYWGQGTQVTVSS	high polyreactivity
QVQLVESGGGLVQAGGSLRLSCAASGITFAYYVMGWYRQAPGKERELVAAITRSGDITSYADSVKGRFTISRDNAKNTVYLQMNSMKPEDTAVYYCNARRGYQSRRYNYWGQGTQVSVSS	high polyreactivity

Prompt: // returns reported polyreactivity (PSR sort gate) for input QVQLVESGGGLVQAGGSLRFSCAASGSIFKTNAIGWYRQAPGKERELVAAIRASGGSTYYADSVKGRFTISRDNAKNTVYLQMNSLKPEDTAVYYCAARVSGSRKYYYWGQGTQVTVSS
Completion: high polyreactivity

Prompt: Same thing, different sequence: QVQLVESGGGLVQAGGSLRLSCAASGRTFYRNVMGWYRQEPGKEREMVASIRTSGGSTYYADSVKGRFTISRDNAKNTVYLQMNSQKPEDTAVYYCATRVFVYPYRRYSHYDYWGLGTQVTVSS
Completion: high polyreactivity

Prompt: What do you get for QVQLVESGGGLVQAGGSLRLSCAASGIIFYYNALGWYRQAPGKERELVAAIDDRGDSTYYADSVKGRFTISRDNAKNTVYLQMNSLKPEDTAVYYCAADRYVQLLGYFFEYDYWGQGTQVTVSS ?
Completion: low polyreactivity

Prompt: Same read-out for QVQLVESGGGLVQAGGSLRLSCSASGSIFSNAMGWYRQAPGKERELVAAITGRGGRTYYADSVKGRFTITRDNAKNSVYLQMNSLKPEDTAVYYCARDSPWSSRYRYRAFDYWGQGTQVTVSS ?
Completion: high polyreactivity

Prompt: Try this sequence too: QVQLVESGGGLVQAGGSLRLSCAASGYTLNTYAMGWYRQAPGKERELVAAITWSGGRTYYADSVKGRFTISRDNAKNTVYLQMNSLKPEDTAVYYCNAVWRRSTGDSGYWGQGTQVTVSS
Completion: high polyreactivity

Prompt: Cool, now QVQLVESGGGLVQAGGSLRLSCAASGSIFDRYAMGWYRQAPGKDRELVAAITWSGGSTRYADSVNGRFTISRDNAKNTVYLQMNILKPEDTAVYYCPASSTRWKVYYWGQGTQVTVSS
Completion: high polyreactivity

Prompt: Next sequence up: QVQLEESGGGIVQAGRSLRLSCAASGITFDANTMGWYRQAPGKERELVAAITGGGSTNYADSVKGRFTISRDNAKNTVYLHMNSPKPEDTAVYYCPADLIYKYNYWGQGTQVTVSS
Completion: low polyreactivity

Prompt: Param item: QVQLVESGGGLVQAAGSLRLSCAAYGGIFYWYAMGWYRQAPGKVRELVAVITLSGGSTDYADSVKGRFTISRDNAKNTVSLQMNSLKPEDTAFYYCAAEAYSYYPGTYEDDYWGQGTQVTVSS
Completion: low polyreactivity

Prompt: And the next one, QVQLVESGGGLVQAGGSLRLSCAASGFTFDYYALGWYRQAPGKERELVAAISRGGSTYYADSVKGRFTISRDNGKNTFYLQMNSLKPEDTAVYYCAVSAGKRRLDYWGQGTQVTVSS ?
Completion: high polyreactivity

Prompt: Now this one: QVQLVESGGGLVQAGGSLRLSCAASGRIFAYYAMGWYRQAPGQERELVATITGGGDRTYYADSVKGRFTISRDNAKNTLYLQMNSLKPEDTAVYYCNARVWYYSPYYYWGQGTQVTVSS
Completion: low polyreactivity

Prompt: Next record, please: QVQLVESGGGLVQEGGSLRLSCAASGITFDYYAMGLYRQAPGKERELVASISYSGGSTYADSVKGRFTISRDNAKNTVYLQMNSLKPEDTAVYYCAKDSQETAYNTVDYCGQGTQVTVSS
Completion: low polyreactivity

----------
Test: yeast display, Sf9 membrane polyspecificity reagent, FACS + sequencing; frameworks hold sequencing errors
property_label: polyreactivity (PSR sort gate)

Solved cases below.
sequence_data	experimental_value
QVQLVESGGGLVQAGGSLRLSCAASGSIIGTNVMGWYRQPPGKERELVPSISYRDGTTYYADSVKGRFTISRDNAKNTVYLQMNSLKPEDTAVYYFAVANYYSYYWGQGTQVTVSS	low polyreactivity
QVQLVESGGGLVQAGGSLRLSCAASGSTFPGYAMGWYRQAPGKERELVAAITAGGGSTYYADSVKGRFTISRDNAKNSVYLLMKSLKPEDTAVYYCAKRYSYYGWRRYDYWGQGTQVTVSS	high polyreactivity
QVQLVESGGRIVQAGGSLRLRCAASGRTLLRYAMGWSRQAPGKERELVAAISSSGGRTYYADSVKGRFTISRDNEKNTVYLQMNSLKPEDTAVYYCAAKSSYVGHDYWGQGTQVTVSS	high polyreactivity
QVQLVESGGGLVQAGGSLRLSCAASGSIFVPNAMGWYSQAPGKERELVASISYSGTSTYYADSVKGRFTISRDNAKNTVYLQMNSLKPEDTAVYYCAVTWYPWYYGYWGQGTQVTVSS	high polyreactivity
QVQLVESGGGLVQAGGSLSLSCAASGSIFGGYTMGRKRQAPGKERELVAAISSVGSTYYADSVKGRFTISRDNAKNTVYLQMNSLKTEDTAVYYCATSTYAYRRNSNYYSLPRFGYWGQGTQVSVSS	high polyreactivity

Prompt: Please look up its polyreactivity (PSR sort gate): QVQLVESGGGLVLAGGSLRLSCAASGSILYYNAMGWYRQAPVKERELVAAITLDGASTYYSDSVKGLFTISRDNAKNTVYLQMNSLKPEDTAGYYCAADYAYWLSGYDYWGQGSQVTVSS
Completion: low polyreactivity

Prompt: QVQLVESGVGLVQAGGSLRISCAASRSTFWNNCMGWYRQAPGKERDLVAAITVRGGSTYYADSVKGRFTISRDNAKNTVYLQMNSLKPEDTAVYFCAADRWLYSWFFNYDQGDYWGQGTQVSVSS , same question.
Completion: low polyreactivity

Prompt: Same question, QVQLVESGGGLVQAGGSLRLSCAASGLIFISYAMGWYRQAPGKERELVAAITSTVGGTYYADSVKGRFTISRDNAKNTVYLQMNSLQPEDTAVYYCAKEVWTWGPYYYWGQGTQVTVSS this time
Completion: low polyreactivity

Prompt: What would you report for QVQLVESGGGLVQAGGSLRLSCASSGITFPGNAMGWYRQAPGKERELVAGISDGDSTNYADSVKGRFTISRDNAKNTVYLQMNSLKPEVTAVYYCNAQGTTETSGGGFFRGMDYWGQGTQVTVSS ?
Completion: low polyreactivity

Prompt: And what about the sequence QFQLVESGGGLVQAGGILRLSCDASGSILARYALGWYRQAPGKERVLVAAISSRGGSTYYADSVKGRFSISRDNAKNTVYLQMNSLKPEDTAVYYCASYVYLQVEYDYWGQGTQVTVSS ?
Completion: low polyreactivity

Prompt: What do you get for QVQLVESGGGLVQAGGSLRLSCAASGSTYAYAMGWYRQAPGKEREFVAAITRSGGSTYYADSVKGRFTISRDNAKITVYLQMNSLKPEDTAVYYCRGNSTSWRGSQMDYWGQGTQVTVSS ?
Completion: high polyreactivity
